Cited source: patent EP0326331B1

# System: Septoria tritici (leaf blotch)
# assay details: Test 1 greenhouse foliar spray screen, leaf blotch on wheat
# Type: in vivo
# condition: Zymoseptoria tritici; Test 1, foliar spray on wheat; disease control rating at 400 ppm / 100 ppm; read-out: LEAF BLOT
measurement kind: pest or weed control at 400 ppm

Fc1ccc2c(OCCc3ccc(-c4ccccc4)cc3)ccnc2c1 [Example 233]
20 to 89%
Cc1ccc(CCOc2ccnc3ccccc23)cc1 [Example 210, 4-[2-(4-methylphenyl)ethoxy]quinoline]
90 to 100%
c1ccc(CCCc2ccnc3ccccc23)cc1 [Example 252, 4-(3-phenylpropyl)quinoline]
20 to 89%
Fc1ccc(CCOc2ccnc3cc(Cl)ccc23)cc1 [Example 236]
0 to 19%
Clc1ccc2c(OCCc3ccccc3)ccnc2c1 [Example 202, 7-chloro-4-(2-phenylethoxy)quinoline]
20 to 89%

Form field - read-out: pest or weed control at 400 ppm; system: Septoria tritici (leaf blotch); submitted item: Fc1cccc2c(CCCc3cccc(C(F)(F)F)c3)ccnc12 [Example 259]
90 to 100%

Form: Entry = Fc1cccc2c(OCCc3ccccc3)ccnc12 [Example 219, 8-fluoro-4-(2-phenylethoxy)quinoline] | System = Septoria tritici (leaf blotch) | pest or weed control at 400 ppm = ____
20 to 89%

Param readout = pest or weed control at 400 ppm; param system = Septoria tritici (leaf blotch); param query = C1=C(CCNc2ccc3nccc(NCCC4=CCCCC4)c3c2)CCCC1 [Example 192] ; response: value
20 to 89%

----------
# System: Twospotted spider mites (Tetranychus urticae Koch)
# assay details: Mite/insect screen, SM
# Assay type: in vivo
# condition: Tetranychus urticae, foliar, percent mortality; rate 200 ppm, foliar spray on squash; read-out: SM RESULTS %
Reported mortality at 200 ppm values for a set of compounds
Report as a plain number; the unit % is understood.

See these solved cases before continuing.
Fc1cccc2c(OCCc3cccc(Cl)c3)ccnc12 [Example 201]
80
C=CCCCOc1ccnc2c(F)cccc12 [Example 267, 8-fluoro-4-(4-pentenoxy)quinoline]
40
CC(C)c1ccc(CCOc2ccnc3c(F)cccc23)cc1 [Example 238]
100

Proceeding to the next compound to report its mortality at 200 ppm.
Need mortality at 200 ppm of CCC(COc1ccnc2c(F)cccc12)c1ccc(-c2ccccc2)cc1 (stereo not drawn) [Example 270] , thanks.
0

----------
# pest or weed control at 400 ppm annotations
# System: Erysiphe graminis tritici (powdery mildew)
# assay details: Test 1 greenhouse foliar spray screen, powdery mildew on wheat
# Type: in vivo
# condition: Blumeria graminis, foliar, Test 1, foliar spray on wheat; disease control rating at 400 ppm / 100 ppm; read-out: POWD MDEW

Fc1ccc(CCOc2ccnc3c(F)cccc23)cc1 [Example 222]
20 to 89%
CC(=O)N(CCc1ccc(Cl)cc1)c1ccc2c(N(CCc3ccc(Cl)cc3)C(C)=O)ccnc2c1 [Example 191]
0 to 19%
Cc1ccc(CCOc2ccnc3c(OCCc4ccc(C)cc4)cccc23)cc1 [Example 251]
0 to 19%

Request the reported pest or weed control at 400 ppm associated with Cc1cc(OCCc2ccc(C(C)(C)C)cc2)c2cc(Cl)ccc2n1 [Example 286]
20 to 89%

Item under review: Fc1cccc2c(OC3CCCCC3c3ccccc3)ccnc12 (centres unmarked) [Example 295] . Reported pest or weed control at 400 ppm?
20 to 89%

Report pest or weed control at 400 ppm for Cc1cc(OCCC2CCCCC2)c2c(Cl)ccc(C)c2n1 [Example 248] please.
20 to 89%

# pest or weed control at 400 ppm lookup, item CC(C)(CNc1ccnc2c(Cl)cccc12)c1ccccc1 [Example 288]
0 to 19%

pest or weed control at 400 ppm for CC(CCOc1ccnc2c(F)cccc12)CC(C)(C)C (centres unmarked) [Example 274] ?
90 to 100%

Give the measured pest or weed control at 400 ppm of CCOc1ccc2nc(C)cc(OCCCOCc3ccccc3)c2c1 [Example 279] .
0 to 19%

Query (compound): COc1cccc(CCOc2ccnc3c(F)cccc23)c1 [Example 195] ; field requested: pest or weed control at 400 ppm
90 to 100%

Reported pest or weed control at 400 ppm, compound Fc1cccc2c(OCC=Cc3ccccc3)ccnc12 [Example 243] : ____
0 to 19%

Tell me the measured pest or weed control at 400 ppm of Cc1ccc(CCOc2ccnc3cc(F)ccc23)cc1 [Example 235] , please.
20 to 89%

Please give the measured pest or weed control at 400 ppm for this compound: Clc1cccc2c(NCCCCc3ccccc3)ccnc12 [Example 281]
20 to 89%

Name the reported pest or weed control at 400 ppm value associated with the compound Clc1ccc2c(OCCc3ccc(-c4ccccc4)cc3)ccnc2c1 [Example 230]
90 to 100%

So what's the measured pest or weed control at 400 ppm for this one? c1ccc(CCNc2ccnc3c(NCCc4ccccc4)cccc23)cc1 [Example 189]
0 to 19%

Which pest or weed control at 400 ppm value is on record for Clc1ccc2c(OCCc3ccccc3)ccnc2c1 [Example 202, 7-chloro-4-(2-phenylethoxy)quinoline] ?
90 to 100%

Form field: reported pest or weed control at 400 ppm of Fc1cccc2c(OCCCCCCCCOc3ccccc3)ccnc12 [Example 285]
0 to 19%

Need pest or weed control at 400 ppm, item Fc1cccc2c(OCCCc3ccc(Oc4ccccc4)cc3)ccnc12 [Example 282]
0 to 19%

Record request: pest or weed control at 400 ppm value, item CC(C)c1ccccc1CCOc1ccnc2c(F)cccc12 [Example 217]
90 to 100%

For the compound Cc1ccc(CCOc2ccnc3cc(Cl)ccc23)cc1 [Example 204] , what pest or weed control at 400 ppm is on record?
20 to 89%
